IC50: recorded values
# targetOfAssay: Fatty acid synthase (Homo sapiens, UniProt P49327)
# Sequence (P49327 whole entry): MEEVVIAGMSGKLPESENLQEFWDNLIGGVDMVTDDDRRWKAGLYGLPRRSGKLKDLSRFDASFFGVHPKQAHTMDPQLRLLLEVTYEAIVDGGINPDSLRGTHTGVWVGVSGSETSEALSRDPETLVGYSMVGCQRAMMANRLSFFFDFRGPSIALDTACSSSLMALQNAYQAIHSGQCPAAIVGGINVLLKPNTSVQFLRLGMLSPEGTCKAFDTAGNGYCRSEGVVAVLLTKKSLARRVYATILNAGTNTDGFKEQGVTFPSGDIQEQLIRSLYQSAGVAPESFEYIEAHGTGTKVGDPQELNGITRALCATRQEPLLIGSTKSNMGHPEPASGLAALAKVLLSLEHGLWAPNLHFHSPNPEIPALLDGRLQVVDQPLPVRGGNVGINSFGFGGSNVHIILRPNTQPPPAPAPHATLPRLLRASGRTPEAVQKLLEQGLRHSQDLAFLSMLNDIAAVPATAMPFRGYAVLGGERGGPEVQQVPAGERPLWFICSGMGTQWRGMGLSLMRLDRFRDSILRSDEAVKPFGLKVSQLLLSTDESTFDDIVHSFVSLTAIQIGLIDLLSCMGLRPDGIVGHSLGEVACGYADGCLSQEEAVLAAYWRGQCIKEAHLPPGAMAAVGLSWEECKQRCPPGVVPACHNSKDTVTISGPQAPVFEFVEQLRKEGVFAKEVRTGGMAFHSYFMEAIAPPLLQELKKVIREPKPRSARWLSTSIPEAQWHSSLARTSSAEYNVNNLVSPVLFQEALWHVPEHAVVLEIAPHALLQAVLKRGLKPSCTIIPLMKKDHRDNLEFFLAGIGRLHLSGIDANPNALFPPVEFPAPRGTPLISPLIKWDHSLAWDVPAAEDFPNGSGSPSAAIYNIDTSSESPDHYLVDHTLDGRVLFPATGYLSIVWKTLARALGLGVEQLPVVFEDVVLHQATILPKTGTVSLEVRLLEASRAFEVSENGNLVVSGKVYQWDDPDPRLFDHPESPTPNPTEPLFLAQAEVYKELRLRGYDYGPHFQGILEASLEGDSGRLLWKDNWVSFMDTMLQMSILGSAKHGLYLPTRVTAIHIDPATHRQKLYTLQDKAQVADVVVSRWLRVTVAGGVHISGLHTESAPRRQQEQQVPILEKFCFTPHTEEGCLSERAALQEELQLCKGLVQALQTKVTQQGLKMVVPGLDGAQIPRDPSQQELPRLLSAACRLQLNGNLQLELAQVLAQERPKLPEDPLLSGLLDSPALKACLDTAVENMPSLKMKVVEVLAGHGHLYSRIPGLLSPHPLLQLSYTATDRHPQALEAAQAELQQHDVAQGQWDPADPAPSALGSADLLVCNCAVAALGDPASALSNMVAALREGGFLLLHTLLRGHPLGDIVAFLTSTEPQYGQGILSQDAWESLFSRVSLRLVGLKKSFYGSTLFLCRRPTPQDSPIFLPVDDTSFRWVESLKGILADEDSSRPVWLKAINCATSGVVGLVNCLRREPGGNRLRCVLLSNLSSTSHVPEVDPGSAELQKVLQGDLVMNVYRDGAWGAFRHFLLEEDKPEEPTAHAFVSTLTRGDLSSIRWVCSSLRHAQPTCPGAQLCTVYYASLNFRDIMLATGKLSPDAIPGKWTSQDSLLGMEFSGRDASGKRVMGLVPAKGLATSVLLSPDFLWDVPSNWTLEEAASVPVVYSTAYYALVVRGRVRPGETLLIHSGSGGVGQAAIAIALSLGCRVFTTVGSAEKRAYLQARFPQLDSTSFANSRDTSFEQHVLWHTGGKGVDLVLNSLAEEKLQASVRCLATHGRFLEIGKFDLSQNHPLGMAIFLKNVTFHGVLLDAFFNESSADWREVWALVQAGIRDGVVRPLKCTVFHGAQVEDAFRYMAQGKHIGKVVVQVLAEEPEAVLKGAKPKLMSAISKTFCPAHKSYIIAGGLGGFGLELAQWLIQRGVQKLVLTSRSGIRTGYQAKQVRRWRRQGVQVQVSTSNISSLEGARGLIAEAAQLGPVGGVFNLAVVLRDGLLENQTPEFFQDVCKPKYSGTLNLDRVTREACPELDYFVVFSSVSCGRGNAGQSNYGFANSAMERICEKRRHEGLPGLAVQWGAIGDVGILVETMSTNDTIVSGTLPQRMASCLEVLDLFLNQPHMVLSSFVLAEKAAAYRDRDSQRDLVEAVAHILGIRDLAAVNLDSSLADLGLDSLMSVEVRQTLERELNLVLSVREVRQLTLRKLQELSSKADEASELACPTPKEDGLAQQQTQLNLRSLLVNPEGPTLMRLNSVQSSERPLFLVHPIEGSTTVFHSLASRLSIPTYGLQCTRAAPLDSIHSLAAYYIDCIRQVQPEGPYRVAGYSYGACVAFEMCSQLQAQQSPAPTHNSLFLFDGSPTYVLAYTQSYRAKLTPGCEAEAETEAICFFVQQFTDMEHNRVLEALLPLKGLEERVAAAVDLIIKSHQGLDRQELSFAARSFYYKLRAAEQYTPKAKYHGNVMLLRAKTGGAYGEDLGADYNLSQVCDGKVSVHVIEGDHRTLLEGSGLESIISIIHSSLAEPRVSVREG
# assayRemarks: inhibition of human FAS-TE enzyme activity – biochemical, kinetic fluorescence intensity, dose response (AID 624326);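 also: rate of fluorescence rise from hydrolysis of a fluorogenic O-methyl fluorescein ester substrate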
# Format: functional
Activity calls are given as the source filed them.

# example entries with known answers
# compound, IC50
records = [
    ("Cn1c(=O)c([N+](=O)[O-])c(N2CCN(Cc3ccc4c(c3)OCO4)CC2)c2ccccc21", "4.73 µM (active)"),
    ("CC(C)N1C(=O)S/C(=C\\c2ccc(-c3ccc(Cl)c(C(=O)O)c3)o2)C1=O", "5.51 µM (active)"),
    ("CCC(CC)COC(=O)C1=C(C)NC(=O)NC1c1ccc([N+](=O)[O-])cc1 (stereo unspecified)", "5.94 µM (active)"),
    ("Oc1ccc(Cl)cc1Sc1cc(Cl)ccc1O", "3.52 µM (active)"),
    ("O=C1OC(c2ccccc2)=NC12CC2c1ccc(Cl)cc1 (stereo unspecified)", "0.238 µM (active)"),
]

Any idea what its IC50 is? The compound is O=C(O)c1ccc(N/N=C/c2ccc(-c3cc(Cl)ccc3Cl)o2)cc1
4.39 µM (active)

Any idea what its IC50 is? The compound is O=[N+]([O-])c1ccc(S(=O)(=O)Nc2nnc(C3CCCCC3)s2)cc1
7.54 µM (active)

Any idea what its IC50 is? The compound is CC(C)(C)OC(=O)NCCCC[C@H](NC(=O)c1[nH]cnc1C(=O)Nc1ccccc1)C(=O)OC(C)(C)C
3.01 µM (active)

Any idea what its IC50 is? The compound is CCN(C(=O)COC(=O)c1cc([N+](=O)[O-])ccc1N1CCOCC1)c1ccccc1
1.86 µM (active)

Any idea what its IC50 is? The compound is CC(C)(C)NC(=O)NC(=O)COC(=O)Cc1ccc(Cl)cc1Cl
9.75 µM (active)

Any idea what its IC50 is? The compound is Cc1ccc2c(C)nc(N=C(N)NS(=O)(=O)c3ccc([N+](=O)[O-])cc3)nc2c1
8.96 µM (active)

----------
Protein target, amino acids: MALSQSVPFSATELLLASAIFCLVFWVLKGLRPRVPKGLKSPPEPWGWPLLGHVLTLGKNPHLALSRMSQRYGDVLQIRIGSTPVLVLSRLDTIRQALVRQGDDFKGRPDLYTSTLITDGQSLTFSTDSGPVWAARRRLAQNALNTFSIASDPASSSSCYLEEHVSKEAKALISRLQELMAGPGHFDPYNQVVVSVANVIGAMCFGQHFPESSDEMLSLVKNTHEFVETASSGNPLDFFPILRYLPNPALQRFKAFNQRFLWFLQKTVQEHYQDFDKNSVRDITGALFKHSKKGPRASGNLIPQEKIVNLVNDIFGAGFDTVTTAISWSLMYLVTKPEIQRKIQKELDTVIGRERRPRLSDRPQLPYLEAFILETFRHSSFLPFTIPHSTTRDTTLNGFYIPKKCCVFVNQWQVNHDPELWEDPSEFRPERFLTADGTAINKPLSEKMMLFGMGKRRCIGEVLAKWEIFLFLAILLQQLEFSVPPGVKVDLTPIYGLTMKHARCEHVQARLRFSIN
AC50: recorded values

# molecule, AC50
records = [
    ("O=C(Cn1c(C(F)(F)F)nc2ccccc21)c1ccccc1", "25.1 µM (inconclusive)"),
]

Below: the item to evaluate.
Any idea what its AC50 is? The molecule is Cc1ccc(CONC(=O)/N=C/N(C)C)cc1
28.2 µM (inconclusive)

----------
# targetOfAssay: Sentrin-specific protease 8 (Homo sapiens, UniProt Q96LD8)
# Sequence (Q96LD8 whole entry): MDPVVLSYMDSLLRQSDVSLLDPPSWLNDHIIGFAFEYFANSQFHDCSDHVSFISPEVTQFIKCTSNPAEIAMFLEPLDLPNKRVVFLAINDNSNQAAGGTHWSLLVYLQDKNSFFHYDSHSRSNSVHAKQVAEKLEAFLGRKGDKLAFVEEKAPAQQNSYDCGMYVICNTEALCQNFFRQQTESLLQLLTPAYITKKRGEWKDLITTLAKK
# Type: functional
Activity calls are given as the source filed them.
quantityName: IC50

# example entries with known answers
# compound, IC50
records = [
    ("O=[N+]([O-])c1ccc(/C=N/c2ccc(Cl)c([N+](=O)[O-])c2)s1", "2.35 µM (active)"),
    ("O=C1Cc2ccccc2C(=O)N1CCc1ccccc1", "0.148 µM (active)"),
    ("COc1ccc(NC(=S)Nc2ccc3nsnc3c2)cc1", "2.3 µM (active)"),
    ("Cc1cc(C)n(C(CC(=O)N2CCc3ccccc3C2)C(=O)O)n1 (stereo unspecified)", "16.5 µM (active)"),
    ("O=C1/C(=C/NCCc2ccccc2)c2ccccc2C(=O)N1Cc1ccccc1", "10.9 µM (active)"),
]

Below: the item to evaluate.
Any idea what its IC50 is? The compound is O=C(NC1CCCCC1)C(c1ccnc2ccccc12)N1CCc2ccccc2C1 (stereo unspecified)
2.31 µM (active)

----------
EC50: recorded values
# targetOfAssay: Peroxisome proliferator-activated receptor gamma/Nuclear receptor coactivator 1 (Homo sapiens, UniProt P37231)
# Sequence (P37231 whole entry): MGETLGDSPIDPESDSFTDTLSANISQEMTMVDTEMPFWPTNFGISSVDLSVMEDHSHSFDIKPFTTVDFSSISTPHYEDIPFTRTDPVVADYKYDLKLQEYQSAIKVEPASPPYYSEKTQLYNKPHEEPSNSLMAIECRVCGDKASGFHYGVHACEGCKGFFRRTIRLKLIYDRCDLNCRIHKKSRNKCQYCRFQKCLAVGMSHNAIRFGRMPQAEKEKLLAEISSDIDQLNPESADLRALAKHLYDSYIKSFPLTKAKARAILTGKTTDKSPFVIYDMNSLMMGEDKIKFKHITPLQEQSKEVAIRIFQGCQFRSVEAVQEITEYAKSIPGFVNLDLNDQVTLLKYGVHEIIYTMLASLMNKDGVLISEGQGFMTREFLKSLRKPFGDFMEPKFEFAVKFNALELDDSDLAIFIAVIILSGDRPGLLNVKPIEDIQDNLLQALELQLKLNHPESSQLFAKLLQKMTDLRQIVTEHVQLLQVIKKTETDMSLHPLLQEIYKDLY
# Sequence (Q15788 whole entry, further chain): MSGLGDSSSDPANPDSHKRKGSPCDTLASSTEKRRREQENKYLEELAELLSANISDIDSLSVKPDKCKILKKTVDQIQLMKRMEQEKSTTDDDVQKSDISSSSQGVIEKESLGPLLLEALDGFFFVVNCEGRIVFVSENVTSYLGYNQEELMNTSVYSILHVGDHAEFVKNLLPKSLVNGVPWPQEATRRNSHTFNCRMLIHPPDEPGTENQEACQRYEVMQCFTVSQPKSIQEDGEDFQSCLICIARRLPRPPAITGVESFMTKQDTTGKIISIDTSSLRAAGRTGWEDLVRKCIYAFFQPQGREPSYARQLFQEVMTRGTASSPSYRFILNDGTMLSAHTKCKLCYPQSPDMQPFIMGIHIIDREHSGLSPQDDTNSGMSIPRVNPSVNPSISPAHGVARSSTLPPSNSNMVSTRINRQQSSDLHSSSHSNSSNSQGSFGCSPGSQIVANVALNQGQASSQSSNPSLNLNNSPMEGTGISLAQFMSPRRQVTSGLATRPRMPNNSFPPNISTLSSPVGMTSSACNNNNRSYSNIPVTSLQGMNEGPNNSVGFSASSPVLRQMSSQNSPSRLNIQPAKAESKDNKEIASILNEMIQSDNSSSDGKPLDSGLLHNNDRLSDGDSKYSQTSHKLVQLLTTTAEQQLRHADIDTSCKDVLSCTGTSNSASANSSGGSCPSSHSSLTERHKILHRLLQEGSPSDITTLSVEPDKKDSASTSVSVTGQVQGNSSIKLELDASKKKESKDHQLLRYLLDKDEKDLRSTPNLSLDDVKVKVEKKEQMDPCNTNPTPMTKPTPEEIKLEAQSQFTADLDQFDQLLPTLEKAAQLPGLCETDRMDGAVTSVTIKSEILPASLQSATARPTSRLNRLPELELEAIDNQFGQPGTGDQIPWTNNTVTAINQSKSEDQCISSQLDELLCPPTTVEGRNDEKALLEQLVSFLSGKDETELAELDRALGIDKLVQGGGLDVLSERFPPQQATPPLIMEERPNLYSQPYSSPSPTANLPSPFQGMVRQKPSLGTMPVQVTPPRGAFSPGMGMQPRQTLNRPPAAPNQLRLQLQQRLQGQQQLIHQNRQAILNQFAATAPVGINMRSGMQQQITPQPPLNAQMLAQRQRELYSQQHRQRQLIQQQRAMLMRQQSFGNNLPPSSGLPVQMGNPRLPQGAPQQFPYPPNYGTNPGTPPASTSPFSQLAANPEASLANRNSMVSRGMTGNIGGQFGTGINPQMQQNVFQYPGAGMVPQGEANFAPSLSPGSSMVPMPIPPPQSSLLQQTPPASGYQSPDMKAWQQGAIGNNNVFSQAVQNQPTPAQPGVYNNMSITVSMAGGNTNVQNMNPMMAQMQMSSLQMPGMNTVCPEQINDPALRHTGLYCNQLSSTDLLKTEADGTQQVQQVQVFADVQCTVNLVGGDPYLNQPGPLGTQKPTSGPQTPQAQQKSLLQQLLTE
# Assay type: functional
Activity calls are given as the source filed them.

# entrySmiles, EC50
records = [
    ("Cc1cc(OCC(=O)Nc2cc(-c3nn4c(C)nnc4s3)ccc2C)ccc1Cl", "9.05 µM (active)"),
]

Any idea what its EC50 is? The compound is COc1cccc(/C=c2/s/c(=C(\C#N)C(=O)N3CCOCC3)n(-c3ccccc3)c2=O)c1
> 79.4 µM (not active)

Any idea what its EC50 is? The compound is O=c1c(Cl)nc2cc(Cl)ccc2n1CCNc1ncc(C(F)(F)F)cc1Cl
19.8 µM (not active)

Any idea what its EC50 is? The compound is COc1ccc(C(=O)C(C)(C)NO)cc1
> 79.4 µM (not active)

Any idea what its EC50 is? The compound is CCOC(=O)c1c(NC(=O)CSc2nnc(CNc3ccc(F)cc3)o2)sc(C(C)=O)c1C
54.3 µM (not active)

----------
# targetOfAssay: Sentrin-specific protease 8 (Homo sapiens, UniProt Q96LD8)
# Type: functional
Calls of active or inactive are those of the source.
Give your call using only these classes: active, inactive

Some solved cases for reference:
# entrySmiles, categoryLabel
records = [
    ("CNC(=S)Nc1ccc(-c2nc3ccc(C)cc3s2)cc1", "active"),
    ("CC(C)(C)c1ccc(OCc2nc(-c3ccccn3)no2)c(Br)c1", "active"),
    ("O=C1C=C(Nc2ccccc2C(=O)O)c2ccccc2C1=O", "active"),
    ("Cc1ccc(Cn2ccs/c2=N\\C(=O)COC(=O)c2ccc(O)cc2O)cc1", "inactive"),
    ("Clc1ccsc1-c1csc(-c2cccnc2)n1", "active"),
]

I'd appreciate the recorded outcome for c1ccc(Nc2nc(-c3ccccc3)ns2)cc1 from this test.
active

I'd appreciate the recorded outcome for COc1ccc(NC(=S)Nc2ccc3nsnc3c2)cc1 from this test.
active

I'd appreciate the recorded outcome for O=C1C(=O)c2ccccc2C(O)=C1CCCCl from this test.
active

I'd appreciate the recorded outcome for Cc1cccc(-c2noc(-c3c(C)noc3C)n2)c1 from this test.
inactive

I'd appreciate the recorded outcome for CC(C)(C)c1cc[n+](C2=C([N-]S(=O)(=O)c3ccccc3)C(=O)c3ccccc3C2=O)cc1 from this test.
active

I'd appreciate the recorded outcome for Cc1csc(NC(=O)c2ccc(Br)s2)n1 from this test.
active

I'd appreciate the recorded outcome for Cc1ccc(C(=O)OCC(=O)c2ccc(Cl)s2)s1 from this test.
active

I'd appreciate the recorded outcome for O=C(O)c1ccc(N/N=C/c2ccc(-c3cc(Cl)ccc3Cl)o2)cc1 from this test.
inactive

----------
# targetOfAssay: Peroxisome proliferator-activated receptor gamma/Nuclear receptor coactivator 1 (Homo sapiens, UniProt P37231)
# assayRemarks: TR-FRET dose response biochemical High Throughput Screening assay for agonists of the steroid receptor coactivator 1 (SRC-1) recruitment by the peroxisome proliferator-activated receptor gamma (PPAR gamma): non-selective agonists. [Related pubchem assays (depositor defined):AID1300, AID1808, AID504735, AID631]
# Type: protein assay
The source made the active and inactive calls.
Give your call using only these classes: class 1 (active), class 0 (inactive)

# compound, categoryLabel
rows = [
    ("Cn1c(S)nnc1-c1sc2cc(C(F)(F)F)cnc2c1-c1cccs1", "class 1"),
    ("N#Cc1c(-c2ccccc2)cc(C2CC2)nc1SCC(=O)c1cccs1", "class 1"),
    ("Cn1c(=O)cc(SCC(=O)NCCCN2CCN(c3ccccc3F)CC2)c2ccccc21", "class 0"),
]

I'd appreciate the recorded outcome for CN(CCCNC(=O)CSc1cc(=O)n(C)c2ccc(Cl)cc12)Cc1ccccc1 from this test.
class 0

I'd appreciate the recorded outcome for C=CCn1c(NC(C)c2cc(Cl)ccc2O)nc2ccccc21 (stereo not given) from this test.
class 0

----------
# Tested on: Streptococcus sp. 'group A'
# assayRemarks: Streptococcus pyogenes SK(-)GAS viability under kanamycin – luminescence, BacTiterGlo, confirmation, counter-screen for streptokinase expression inhibitor project, dose response (AID 1900)
# Assay type: functional, organism-based
Activity calls are given as the source filed them.
EC50: recorded values

# example entries with known answers
# molecule, quantityName, observedValue
rows = [
    ("Cc1cccc(C(=O)NCC(=O)N2CCOCC2)c1", "EC50", "> 150 µM (not active)"),
    ("CC(C)(C)c1cc[n+](C2=C([N-]S(=O)(=O)c3ccccc3)C(=O)c3ccccc3C2=O)cc1", "EC50", "4.89 µM (active)"),
    ("O=c1c2ccccc2sn1-c1ccccc1", "EC50", "0.888 µM (active)"),
    ("COc1ccc(-c2cc(C3CCN(Cc4cccc(C(F)(F)F)c4)CC3)[nH]n2)cc1", "EC50", "25.1 µM (active)"),
    ("COc1ccc(CCNC(=O)c2cc(-c3ccc(Cl)c(Cl)c3)oc2C)cc1", "EC50", "7.72 µM (active)"),
]

Any idea what its EC50 is? The molecule is Cc1ccc(-c2cc3nc(-c4ccc(Br)cc4)cc(N)n3n2)cc1
1.59 µM (active)

Any idea what its EC50 is? The molecule is CCCC(=O)NC(c1ccco1)c1cc(Cl)c2cccnc2c1O (stereo unspecified)
1.18 µM (active)

Any idea what its EC50 is? The molecule is CCC(CC)NC(=O)c1oc2ccccc2c1COc1ccccc1
9.43 µM (active)

Any idea what its EC50 is? The molecule is Cc1cccc2sc(NNC(=O)c3ccc(S(=O)(=O)N4CCc5ccccc5C4)cc3)nc12
2.4 µM (active)

Any idea what its EC50 is? The molecule is O=C(NC(=S)Nc1ccccc1N1CCCC1)c1ccccc1Br
32.3 µM (active)

Any idea what its EC50 is? The molecule is CNC(=Nc1cc(Cl)ccc1Cl)SC1CC(=O)N(c2ccc(C(=O)OC)cc2)C1=O (stereo unspecified)
10.3 µM (active)
